Each recorded value in this set is attributed to ChEMBL document CHEMBL4602617.

TESTED TARGET: Serine/threonine-protein kinase 26 (Homo sapiens, UniProt Q9P289)
PROTOCOL DETAILS: Inhibition of recombinant full length human GST-tagged MST4 expressed in baculovirus expression system using serine/threonine-7 peptide as substrate incubated for 60 mins in presence of ATP by Z'-LYTE assay
pIC50: −log10 of the molar value.
PROPERTY LABEL: pIC50

Form entry - test system: Serine/threonine-protein kinase 26 (Homo sapiens, UniProt Q9P289); read-out: pIC50; compound: `C[C@@H]1C[C@H]1C(=O)N1CCN(c2cnc(C#N)c(-c3cnn(C)c3)n2)C[C@H]1C`
< 4.00

* * *

TESTED TARGET: Serine/threonine-protein kinase 24 (Homo sapiens)
Sequence (Q9Y6E0 whole entry): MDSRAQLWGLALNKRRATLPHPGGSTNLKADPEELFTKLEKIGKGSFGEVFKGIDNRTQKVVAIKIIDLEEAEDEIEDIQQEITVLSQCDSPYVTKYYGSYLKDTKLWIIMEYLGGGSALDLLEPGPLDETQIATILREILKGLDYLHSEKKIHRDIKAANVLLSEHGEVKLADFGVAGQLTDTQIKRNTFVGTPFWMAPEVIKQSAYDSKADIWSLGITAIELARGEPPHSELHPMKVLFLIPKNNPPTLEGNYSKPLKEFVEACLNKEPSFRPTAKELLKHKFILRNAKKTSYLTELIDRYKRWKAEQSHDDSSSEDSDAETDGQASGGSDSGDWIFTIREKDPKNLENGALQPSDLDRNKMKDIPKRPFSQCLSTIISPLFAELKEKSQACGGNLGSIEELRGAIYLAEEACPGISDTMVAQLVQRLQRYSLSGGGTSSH
PROTOCOL DETAILS: Inhibition of recombinant full length human GST-tagged MST3 expressed in baculovirus expression system using serine/threonine-7 peptide as substrate incubated for 60 mins in presence of ATP by Z'-LYTE assay
PROPERTY LABEL: IC50

Would you kindly share the measured IC50 for `C[C@@H]1C[C@H]1C(=O)N1CCN(c2cnc(C#N)c(-c3cnn(C)c3)n2)C[C@H]1C` ?
> 100 µM

* * *

TESTED TARGET: UniProt Q9Y463
PROTOCOL DETAILS: Inhibition of recombinant full length human GST-tagged DYRK1B expressed in baculovirus expression system using serine/threonine-18 peptide as substrate incubated for 60 mins in presence of ATP by Z'-LYTE assay
PROPERTY LABEL: IC50

Missing value: IC50, UniProt Q9Y463, entry `C[C@@H]1C[C@H]1C(=O)N1CCN(c2cnc(C#N)c(-c3cnn(C)c3)n2)C[C@H]1C` . Fill in?
> 100 µM

* * *

PROTOCOL DETAILS: Clearance in rat plasma at 0.5 mg/kg, iv or 1 mg/kg, po
Assay type: ADME, organism-based
PROPERTY LABEL: clearance (mL/min/kg)
# output: bare number, implied unit mL/min/kg

Could you tell me which clearance is on file for `C[C@@H]1C[C@H]1C(=O)N1CCN(c2cnc(C#N)c(-c3cnn(C)c3)n2)C[C@H]1C` ?
28.5

* * *

TESTED TARGET: Homeodomain-interacting protein kinase 1 (Homo sapiens)
PROTOCOL DETAILS: Inhibition of recombinant human GST-tagged HIPK1 catalytic domain expressed in baculovirus expression system using serine/threonine-9 peptide as substrate incubated for 60 mins in presence of ATP by Z'-LYTE assay
PROPERTY LABEL: IC50

Give the measured IC50 of `C[C@@H]1C[C@H]1C(=O)N1CCN(c2cnc(C#N)c(-c3cnn(C)c3)n2)C[C@H]1C` .
> 100 µM

* * *

TESTED TARGET: UniProtKB P29317
Sequence (P29317 whole entry, the tested form may be a part): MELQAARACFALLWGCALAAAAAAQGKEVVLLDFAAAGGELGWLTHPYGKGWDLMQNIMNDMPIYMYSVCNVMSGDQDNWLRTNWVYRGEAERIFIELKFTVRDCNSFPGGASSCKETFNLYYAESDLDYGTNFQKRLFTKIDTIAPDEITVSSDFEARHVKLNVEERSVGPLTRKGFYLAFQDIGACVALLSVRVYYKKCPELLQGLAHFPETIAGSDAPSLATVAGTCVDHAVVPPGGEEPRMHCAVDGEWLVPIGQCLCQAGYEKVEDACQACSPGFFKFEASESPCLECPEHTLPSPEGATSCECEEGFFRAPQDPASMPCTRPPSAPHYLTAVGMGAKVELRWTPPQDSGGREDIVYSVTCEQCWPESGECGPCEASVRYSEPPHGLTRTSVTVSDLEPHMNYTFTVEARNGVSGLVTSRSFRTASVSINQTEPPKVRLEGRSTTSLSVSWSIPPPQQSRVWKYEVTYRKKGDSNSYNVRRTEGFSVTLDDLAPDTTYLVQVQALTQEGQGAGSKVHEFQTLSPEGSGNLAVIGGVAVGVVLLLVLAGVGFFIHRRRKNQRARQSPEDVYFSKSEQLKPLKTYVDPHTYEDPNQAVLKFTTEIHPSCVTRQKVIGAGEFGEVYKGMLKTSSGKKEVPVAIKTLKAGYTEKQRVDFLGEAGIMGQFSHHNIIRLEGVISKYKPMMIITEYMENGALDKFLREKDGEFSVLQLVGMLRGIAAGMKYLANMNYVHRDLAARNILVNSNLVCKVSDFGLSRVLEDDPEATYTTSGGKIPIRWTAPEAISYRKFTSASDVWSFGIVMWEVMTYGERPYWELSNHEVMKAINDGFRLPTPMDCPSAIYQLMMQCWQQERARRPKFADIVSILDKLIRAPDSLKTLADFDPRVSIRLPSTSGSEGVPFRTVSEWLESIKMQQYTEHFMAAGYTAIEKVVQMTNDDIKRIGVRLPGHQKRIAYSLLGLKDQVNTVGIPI
PROTOCOL DETAILS: Inhibition of recombinant human GST-tagged EPHA2 cytoplasmic domain expressed in baculovirus expression system using tyrosine-01 peptide as substrate incubated for 60 mins in presence of ATP by Z'-Lyte assay
PROPERTY LABEL: IC50

Write down the reported IC50 of `C[C@@H]1C[C@H]1C(=O)N1CCN(c2cnc(C#N)c(-c3cnn(C)c3)n2)C[C@H]1C` , test system: UniProtKB P29317.
> 100 µM

* * *

PROTOCOL DETAILS: Half life in rat at 0.5 mg/kg, iv 1 mg/kg, po
Type: ADME, organism-based
CONDITION PARAMETERS: in vivo
PROPERTY LABEL: half-life (min)
Report only the number, with the unit min understood.

For the compound shown here, `C[C@@H]1C[C@H]1C(=O)N1CCN(c2cnc(C#N)c(-c3cnn(C)c3)n2)C[C@H]1C` , give the reported half-life.
36

* * *

TESTED TARGET: CDK9/cyclin T1 (Homo sapiens)
Sequence (O60563 whole entry): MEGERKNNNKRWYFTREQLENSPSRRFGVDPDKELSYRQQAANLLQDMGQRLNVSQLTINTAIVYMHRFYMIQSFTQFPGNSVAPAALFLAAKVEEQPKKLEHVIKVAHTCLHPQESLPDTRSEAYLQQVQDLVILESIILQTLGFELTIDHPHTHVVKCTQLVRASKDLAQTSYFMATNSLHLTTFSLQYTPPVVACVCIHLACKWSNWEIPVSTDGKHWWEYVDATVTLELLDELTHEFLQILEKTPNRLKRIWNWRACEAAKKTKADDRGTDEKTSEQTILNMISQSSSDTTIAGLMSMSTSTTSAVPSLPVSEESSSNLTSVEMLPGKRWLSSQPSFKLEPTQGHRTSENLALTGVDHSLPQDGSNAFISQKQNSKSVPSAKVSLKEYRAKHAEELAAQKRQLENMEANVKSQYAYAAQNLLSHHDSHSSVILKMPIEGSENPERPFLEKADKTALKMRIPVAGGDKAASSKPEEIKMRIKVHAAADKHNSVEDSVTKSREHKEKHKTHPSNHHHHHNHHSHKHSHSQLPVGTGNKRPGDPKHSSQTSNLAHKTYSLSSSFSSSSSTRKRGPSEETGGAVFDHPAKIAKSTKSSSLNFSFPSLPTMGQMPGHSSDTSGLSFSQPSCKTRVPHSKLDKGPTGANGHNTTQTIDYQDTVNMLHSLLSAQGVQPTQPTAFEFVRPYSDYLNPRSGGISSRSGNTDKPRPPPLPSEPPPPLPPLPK
Sequence (P50750 whole entry): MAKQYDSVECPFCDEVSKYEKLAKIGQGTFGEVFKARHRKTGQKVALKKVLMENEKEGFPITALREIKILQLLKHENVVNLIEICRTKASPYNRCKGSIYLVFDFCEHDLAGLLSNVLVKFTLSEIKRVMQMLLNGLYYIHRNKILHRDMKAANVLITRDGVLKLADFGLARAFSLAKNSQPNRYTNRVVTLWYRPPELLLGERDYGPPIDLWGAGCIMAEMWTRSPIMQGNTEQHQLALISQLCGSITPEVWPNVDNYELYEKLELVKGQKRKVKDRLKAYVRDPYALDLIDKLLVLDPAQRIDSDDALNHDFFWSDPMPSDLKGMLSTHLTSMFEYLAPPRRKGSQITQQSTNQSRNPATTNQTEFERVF
PROTOCOL DETAILS: Inhibition of recombinant full length human His-tagged CDK9/CyclinT1 expressed in baculovirus expression system using CDK7/9tide peptide as substrate incubated for 60 mins in presence of ATP by Adapta assay
pIC50: −log10 of the molar value.
PROPERTY LABEL: pIC50

# get_value(readout= pIC50, system= CDK9/cyclin T1 (Homo sapiens)) for `C[C@@H]1C[C@H]1C(=O)N1CCN(c2cnc(C#N)c(-c3cnn(C)c3)n2)C[C@H]1C`
< 4.00

* * *

TESTED TARGET: Serine/threonine-protein kinase MRCK beta (Homo sapiens, UniProt Q9Y5S2)
Sequence (Q9Y5S2 whole entry, the tested form may be a part): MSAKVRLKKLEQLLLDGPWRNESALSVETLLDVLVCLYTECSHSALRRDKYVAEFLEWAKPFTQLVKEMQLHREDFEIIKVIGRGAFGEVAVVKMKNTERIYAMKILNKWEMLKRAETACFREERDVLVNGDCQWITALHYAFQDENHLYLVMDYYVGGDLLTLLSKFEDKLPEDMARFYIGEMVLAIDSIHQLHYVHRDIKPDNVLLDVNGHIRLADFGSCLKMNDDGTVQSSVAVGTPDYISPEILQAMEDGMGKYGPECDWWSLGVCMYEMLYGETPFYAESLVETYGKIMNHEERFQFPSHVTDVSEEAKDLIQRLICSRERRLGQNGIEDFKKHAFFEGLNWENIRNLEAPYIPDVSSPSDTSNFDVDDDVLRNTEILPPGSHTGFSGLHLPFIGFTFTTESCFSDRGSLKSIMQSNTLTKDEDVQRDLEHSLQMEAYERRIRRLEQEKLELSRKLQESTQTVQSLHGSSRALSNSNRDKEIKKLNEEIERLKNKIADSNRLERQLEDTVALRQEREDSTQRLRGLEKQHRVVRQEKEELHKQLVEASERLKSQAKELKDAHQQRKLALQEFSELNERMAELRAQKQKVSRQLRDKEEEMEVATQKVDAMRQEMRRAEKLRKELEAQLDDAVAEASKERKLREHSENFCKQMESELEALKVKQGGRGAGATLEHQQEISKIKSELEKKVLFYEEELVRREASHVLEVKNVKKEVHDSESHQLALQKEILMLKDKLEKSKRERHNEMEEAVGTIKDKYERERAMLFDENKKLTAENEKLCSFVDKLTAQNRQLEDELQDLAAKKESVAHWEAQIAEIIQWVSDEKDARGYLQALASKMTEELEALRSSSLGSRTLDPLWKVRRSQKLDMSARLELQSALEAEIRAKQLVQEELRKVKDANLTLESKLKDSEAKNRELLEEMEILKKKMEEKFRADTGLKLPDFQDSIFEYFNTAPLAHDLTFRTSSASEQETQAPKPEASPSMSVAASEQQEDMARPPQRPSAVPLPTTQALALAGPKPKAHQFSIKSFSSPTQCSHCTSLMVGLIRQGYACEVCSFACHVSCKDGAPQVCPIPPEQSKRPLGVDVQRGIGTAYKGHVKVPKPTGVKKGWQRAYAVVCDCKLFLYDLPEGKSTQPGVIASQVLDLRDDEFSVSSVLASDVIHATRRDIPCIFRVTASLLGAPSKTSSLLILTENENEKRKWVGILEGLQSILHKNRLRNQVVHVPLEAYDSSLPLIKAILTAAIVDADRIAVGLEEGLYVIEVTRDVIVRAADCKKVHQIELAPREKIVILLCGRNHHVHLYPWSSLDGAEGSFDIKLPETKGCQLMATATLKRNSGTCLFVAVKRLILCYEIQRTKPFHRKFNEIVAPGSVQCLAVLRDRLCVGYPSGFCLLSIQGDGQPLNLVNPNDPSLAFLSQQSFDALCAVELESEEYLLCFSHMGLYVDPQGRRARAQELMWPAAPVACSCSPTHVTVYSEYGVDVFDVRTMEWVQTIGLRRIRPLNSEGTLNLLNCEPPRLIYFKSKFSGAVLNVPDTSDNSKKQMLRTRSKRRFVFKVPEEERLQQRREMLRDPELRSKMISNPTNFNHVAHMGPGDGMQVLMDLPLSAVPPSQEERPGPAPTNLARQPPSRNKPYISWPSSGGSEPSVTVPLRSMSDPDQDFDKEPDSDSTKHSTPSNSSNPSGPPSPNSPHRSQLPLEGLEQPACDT
PROTOCOL DETAILS: Inhibition of recombinant human His-tagged MRCKB catalytic domain expressed in baculovirus expression system using serine/threonine-13 peptide as substrate incubated for 60 mins in presence of ATP by Z'-LYTE assay
PROPERTY LABEL: IC50

Reported IC50, compound `C[C@@H]1C[C@H]1C(=O)N1CCN(c2cnc(C#N)c(-c3cnn(C)c3)n2)C[C@H]1C` : ____
> 100 µM

* * *

PROTOCOL DETAILS: Volume of drug distribution in Wistar Han rat at 0.05 mg/kg, iv administered as cassette dose
Type: ADME, organism-based
CONDITION PARAMETERS: in vivo
# Vd listing for each entry below

Look up Vd for this compound: `Cn1cc(-c2ncc(C#N)c(N3C[C@@H]4C[C@H]3CN4c3cccc(F)c3)n2)cn1`
4.7 L/kg

Also need `Cn1cc(-c2ncc(C#N)c(N3C[C@@H]4C[C@H]3CN4C(=O)C3CC3)n2)cn1` , thanks.
0.9 L/kg

// next entry
I have this compound here, `N#Cc1cnc(-c2cccnc2)nc1N1C[C@@H]2C[C@H]1CN2c1cccc(F)c1` , and I need its recorded Vd.
3.6 L/kg

* * *

TESTED TARGET: cAMP-dependent protein kinase catalytic subunit alpha (Homo sapiens)
PROTOCOL DETAILS: Inhibition of recombinant human His-tagged PRKACA catalytic domain expressed in Escherichia coli using fluorophore-labeled serine/threonine-1 peptide as substrate incubated for 60 mins in presence of ATP by Z'-LYTE assay
pIC50: −log10 of the molar value.
PROPERTY LABEL: pIC50

Returns the measured pIC50 for the input compound. Input: `C[C@@H]1C[C@H]1C(=O)N1CCN(c2cnc(C#N)c(-c3cnn(C)c3)n2)C[C@H]1C`
< 4.00

* * *

TESTED TARGET: Serine/threonine-protein kinase 25 (Homo sapiens)
Sequence (O00506 whole entry): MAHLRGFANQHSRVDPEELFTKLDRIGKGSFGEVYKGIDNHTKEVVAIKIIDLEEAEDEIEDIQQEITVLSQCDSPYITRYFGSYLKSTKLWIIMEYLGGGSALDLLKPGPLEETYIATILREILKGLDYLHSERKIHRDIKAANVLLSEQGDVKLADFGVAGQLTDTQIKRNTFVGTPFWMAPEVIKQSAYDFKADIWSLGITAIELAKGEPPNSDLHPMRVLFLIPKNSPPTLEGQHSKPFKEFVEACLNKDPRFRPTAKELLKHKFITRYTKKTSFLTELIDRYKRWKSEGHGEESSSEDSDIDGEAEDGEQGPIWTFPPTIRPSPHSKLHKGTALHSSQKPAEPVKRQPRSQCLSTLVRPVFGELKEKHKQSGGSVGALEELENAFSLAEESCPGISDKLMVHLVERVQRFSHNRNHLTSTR
PROTOCOL DETAILS: Inhibition of recombinant full length human GST-tagged YSK1 expressed in baculovirus expression system using serine/threonine-7 peptide as substrate incubated for 60 mins in presence of ATP by Z'-LYTE assay
PROPERTY LABEL: IC50

For `C[C@@H]1C[C@H]1C(=O)N1CCN(c2cnc(C#N)c(-c3cnn(C)c3)n2)C[C@H]1C` , what is its reported IC50?
> 100 µM

* * *

TESTED TARGET: Protein kinase C epsilon type (Homo sapiens, UniProt Q02156)
Sequence (Q02156 whole entry): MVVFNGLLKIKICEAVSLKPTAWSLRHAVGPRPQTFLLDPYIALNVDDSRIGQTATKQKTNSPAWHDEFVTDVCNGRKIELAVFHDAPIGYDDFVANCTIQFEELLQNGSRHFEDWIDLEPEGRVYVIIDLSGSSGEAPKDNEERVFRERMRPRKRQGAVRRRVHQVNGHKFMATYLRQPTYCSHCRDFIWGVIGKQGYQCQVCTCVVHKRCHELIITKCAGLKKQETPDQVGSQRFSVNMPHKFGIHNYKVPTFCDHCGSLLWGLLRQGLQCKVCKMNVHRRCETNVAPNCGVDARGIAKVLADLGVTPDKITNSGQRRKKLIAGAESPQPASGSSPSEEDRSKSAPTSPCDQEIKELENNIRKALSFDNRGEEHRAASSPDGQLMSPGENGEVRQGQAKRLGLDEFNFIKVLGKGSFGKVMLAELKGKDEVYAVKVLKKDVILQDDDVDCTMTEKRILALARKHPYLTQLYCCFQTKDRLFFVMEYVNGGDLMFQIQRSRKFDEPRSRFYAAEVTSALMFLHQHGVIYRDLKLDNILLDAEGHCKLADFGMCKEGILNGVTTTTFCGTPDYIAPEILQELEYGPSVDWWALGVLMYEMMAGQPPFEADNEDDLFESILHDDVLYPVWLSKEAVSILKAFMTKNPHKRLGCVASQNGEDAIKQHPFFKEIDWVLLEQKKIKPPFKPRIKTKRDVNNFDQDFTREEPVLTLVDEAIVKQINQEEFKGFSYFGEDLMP
PROTOCOL DETAILS: Inhibition of recombinant full length human GST-tagged PRKCE expressed in insect expression system using serine/threonine-7 peptide as substrate incubated for 60 mins in presence of ATP by Z'-LYTE assay
pIC50: −log10 of the molar value.
PROPERTY LABEL: pIC50

May I ask what pIC50 has been recorded for `C[C@@H]1C[C@H]1C(=O)N1CCN(c2cnc(C#N)c(-c3cnn(C)c3)n2)C[C@H]1C` ?
< 4.00

* * *

TESTED TARGET: Mitogen-activated protein kinase 13 (Homo sapiens, UniProt O15264)
Sequence (O15264 whole entry): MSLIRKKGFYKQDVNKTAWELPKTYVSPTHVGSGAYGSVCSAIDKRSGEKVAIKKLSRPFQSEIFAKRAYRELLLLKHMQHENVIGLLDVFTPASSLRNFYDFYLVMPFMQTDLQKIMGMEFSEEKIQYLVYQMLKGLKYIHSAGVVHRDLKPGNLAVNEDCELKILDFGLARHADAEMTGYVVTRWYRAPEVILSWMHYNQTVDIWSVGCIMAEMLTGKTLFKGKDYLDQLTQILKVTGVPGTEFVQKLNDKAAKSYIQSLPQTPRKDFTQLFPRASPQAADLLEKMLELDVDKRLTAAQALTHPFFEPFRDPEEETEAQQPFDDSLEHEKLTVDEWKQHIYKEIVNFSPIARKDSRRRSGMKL
PROTOCOL DETAILS: Inhibition of recombinant full length human His-tagged p38delta expressed in baculovirus expression system using serine/threonine-3 peptide as substrate incubated for 60 mins in presence of ATP by Z'-LYTE assay
PROPERTY LABEL: IC50

Fill in: IC50 of `C[C@@H]1C[C@H]1C(=O)N1CCN(c2cnc(C#N)c(-c3cnn(C)c3)n2)C[C@H]1C` is ___
> 100 µM
